From: PubChem BioAssay AID1159580

run description: chemical genetic growth profiling, strain panel (AID 1159580);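 also: tested at 20 µM; growth read once vehicle control cultures reached saturation at 30 °C; 1 = growth at the plate median or of vehicle wells; lower values mean less growth of the strain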
test parameters: S. cerevisiae deletion strains, growth OD, locus YNL224C, strain SQS1, stronger effect = lower value
Among all 5,500 compounds or so, about 2,000 (36%) were called active. Another 18% or so got no clear call; they are omitted. The list shows a part of the results.
For each entry below, report its normalized growth value.
Provide a numeric answer; units are not to be included.

I would be grateful if you could share the reported normalized growth for COc1ccc2c(c1)C13CCCCC1C(C2)N(C)CC3 (stereo not given) .
1.01

Subsequent entry: COC(=O)[C@H](NC(=O)c1cc(-c2ccccc2)nc2ccccc12)c1ccccc1
1.02

Subsequent entry: CCC1(C2=NCCN2)Cc2ccccc2O1 (stereo not given)
1.01

Subsequent entry: Cn1c(=O)[nH]c2ncn(C)c2c1=O
0.99

Subsequent entry: O=Nc1c(-c2c(O)[nH]c3ccccc23)[nH]c2ccccc12
0.951

Subsequent entry: Oc1ccccc1O
0.999

Subsequent entry: COC[C@H]1OC(=O)c2coc3c2[C@@]1(C)C1=C(C3=O)C2CCC(=O)[C@@]2(C)C[C@H]1OC(C)=O (stereo not given in full)
0.0711

Subsequent entry: O=C(/C=C/c1ccc(O)cc1)c1ccc(O)cc1O
0.976

Subsequent entry: O=c1[nH]ccc2c(O)cccc12
0.994

Subsequent entry: Cc1cc(O)c2c(c1)C(=O)c1cc(O)cc(O)c1C2=O
0.861

Subsequent entry: O=c1cc(-c2ccccc2)[nH]c2nc(Cl)ccc12
0.977

Subsequent entry: Nc1nc(SCc2ccc([N+](=O)[O-])cc2)c2ncn([C@@H]3O[C@H](CO)[C@H](O)C3O)c2n1 (stereo not given in full)
1

Subsequent entry: NC(CCP(=O)(O)O)C(=O)O (stereo not given)
0.989

Subsequent entry: CCCn1c(=O)c2c(ncn2C)n(CCC)c1=O
0.988

Subsequent entry: NS(=O)(=O)c1cc2c(cc1Cl)NCNS2(=O)=O
0.996

----------
run description: chemical genetic growth profiling, strain panel (AID 1159580);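 also: tested at 20 µM; growth read once vehicle control cultures reached saturation at 30 °C; 1 = growth at the plate median or of vehicle wells; lower values mean less growth of the strain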
test parameters: S. cerevisiae deletion strains, growth OD, locus YPL078C, strain atp4, stronger effect = lower value
In all, about 5,500 compounds went through this assay and about 2,000 (36%) were called active. Inconclusive results (about 18%) are left out. This is one part of the list.
reported property: normalized growth
Provide a numeric answer; units are not to be included.

I would be grateful if you could share the reported normalized growth for Cn1c(=O)[nH]c2ncn(C)c2c1=O .
1.01

Subsequent entry: OC[C@H]1O[C@@H](Oc2ccc(O)cc2)[C@H](O)[C@@H](O)[C@@H]1O
1.01

Subsequent entry: O=C(O)c1cc(=O)c2ccccc2[nH]1
0.987

Subsequent entry: O=C1C=CC(=O)c2c(O)cccc21
0.974

Subsequent entry: CC12CCC(O)CC1CCc1ccccc12 (configuration not stated)
0.973

Subsequent entry: NC(Cc1ccc(Cl)cc1)C(=O)O (configuration not stated)
1

Subsequent entry: CNC(=O)Oc1ccccc1OC(C)C
0.998

Subsequent entry: COC(=O)CC1C(C)(C(=O)c2ccoc2)CC2OCC34C(CC(=O)OC)C5(C)CC36OC3(C)OC1(C(OC(C)=O)C6(OC(C)=O)C5OC(=O)C(C)C)C24O3 (configuration not stated)
0.99

Subsequent entry: CC(=O)CCCCn1c(=O)c2c(ncn2C)n(C)c1=O
1.01

Subsequent entry: Cc1cc2nc3c(=O)[nH]c(=O)nc-3n(CC(O)C(O)C(O)CO)c2cc1C (configuration not stated)
1.02

Subsequent entry: C=C(C)C1Cc2c(ccc3c(=O)c4c(oc23)COc2cc(OC)c(OC)cc2-4)O1 (configuration not stated)
1.01

Subsequent entry: Oc1cccc2cccnc12
0.0642

Subsequent entry: CNC(C)(C)Cc1ccccc1
1.01

Subsequent entry: NS(=O)(=O)c1cc2c(cc1Cl)NCNS2(=O)=O
0.994

Subsequent entry: NNCc1ccccc1
0.997

Subsequent entry: CCCC(=O)Nc1ccc(OCC(O)CNC(C)C)c(C(C)=O)c1 (configuration not stated)
1.03

Subsequent entry: O=C(/C=C/c1ccccc1)c1ccc(O)cc1O
0.0665
